Target: T1, UNK ZnF1-6 (called full-length) (human, UniProt Q9C0B0 30-357)
T1 sequence: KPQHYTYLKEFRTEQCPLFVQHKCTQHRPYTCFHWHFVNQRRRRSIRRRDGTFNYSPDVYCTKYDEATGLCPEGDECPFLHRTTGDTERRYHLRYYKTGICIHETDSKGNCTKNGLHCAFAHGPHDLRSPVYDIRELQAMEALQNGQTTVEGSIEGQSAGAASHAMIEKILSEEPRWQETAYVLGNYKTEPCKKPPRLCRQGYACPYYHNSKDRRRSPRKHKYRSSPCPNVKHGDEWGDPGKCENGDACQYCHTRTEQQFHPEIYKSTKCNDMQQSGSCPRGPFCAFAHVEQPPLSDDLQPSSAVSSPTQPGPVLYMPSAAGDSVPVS
Experiment: nsRBNS (natural sequence RNA bind-n-seq); RBNS binding buffer (assumed for nsRBNS): 25 mM Tris pH 7.5, 150 mM KCl, 3 mM MgCl2, 0.01% Triton X-100, 500 ug/ml BSA, 20 U/ml SUPERase-In, 4 C; UNK is unkempt and MSI1 is Musashi-1; names of the RNAs are library labels; protein concentration not given here; high values mean tight binding
Over roughly 5,800 sequences, “enrichment r” has its median near 0.68; the highest 2% begin near 11. The sample holds the highest values, similar sequences and a random draw of the others, so the mix is not that of the screen.
MEASURED_METRIC: binding signal (enrichment R)
Give bare numbers, in enrichment R.

# annotated cases, reported binding signal shown
* chr11:134247321:134247422:+|3pUTR|ENSG00000151502|unk|FALSE|unique (ssRNA) RNA: GGGAGUUCUACAGUCCGACGAUCCCUUUUCAGAGCAUGAGGUCAGGCUCUGUAUCCCUCCUUUUCCUAGCUGAUAUUCUAACUAGAAGCAUUUGUCAAUUCCUUUGCCUCCCAACUGACAACACACGUUCAUUUUCCAACCUUCAACAGAGGAUUGAGCAUCA | 2.72
* ENSG00000070961:be:win_51|CDS|ENSG00000070961|bound_else_gene|NA|bound_elsewhere_windowed (ssRNA) RNA: GGGAGUUCUACAGUCCGACGAUCUUUGAAGGAAGCUAAUCAUGAUGGAGACUUUGGAAUUACGCUCGCAGAGCUGCGGGCUCUCAUGGAGCUCAGGUCCACAGAUGCAUUACGAAAAAUACAGGAAAGCUAUGGAGAUGUCUACAACAGAGGAUUGAGCAUCA | 0.507

Any idea what its binding signal is? The binder is chr14:75059847:75060235:-|three_prime_utr|ENSG00000119640|control|control|control (ssRNA) RNA: GGGAGUUCUACAGUCCGACGAUCAACCACAUUAAAAAAAUAAAAAGGAUAACUGGAAAAUCCCAAAAUAUUUGGAAACCAUAUAGCACACUUACUUCUAAAAUUGUGGUAGAAUACAUAUAACAUAGAAAUUAUUGUUCUAACCAACAGAGGAUUGAGCAUCA 2.02
